The entries below are paired with their reported log10(Ki).
TARGET UNDER TEST: hMCR-1a (Homo sapiens (Human), UniProt Q01726)
Sequence (Q01726 whole entry): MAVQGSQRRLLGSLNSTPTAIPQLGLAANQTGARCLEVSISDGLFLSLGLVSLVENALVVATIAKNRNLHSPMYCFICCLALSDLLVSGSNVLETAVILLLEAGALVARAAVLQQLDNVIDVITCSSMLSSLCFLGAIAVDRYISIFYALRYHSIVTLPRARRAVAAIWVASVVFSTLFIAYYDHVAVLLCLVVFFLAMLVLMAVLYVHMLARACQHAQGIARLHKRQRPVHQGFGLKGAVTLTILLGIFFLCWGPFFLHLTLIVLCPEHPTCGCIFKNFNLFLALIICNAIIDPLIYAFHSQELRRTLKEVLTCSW
ASSAY REMARKS: Competitive inhibition binding assay using [I125]-NDP-α-MSH, hMCR-1a
TEST PARAMETERS: membrane homogenates of HEK-293 cells, human recombinant receptor, averaged, read-out: MC-1 Ki (average)
Bridge positions count the residues as written; N and C are the ends. Square brackets hold non-standard residues; d marks the D form. Peptide text beside a SMILES is read from it. dPhe(3-Cl) = N[C@H](Cc1cccc(Cl)c1)C(=O)O; Nle = CCCC[C@H](N)C(=O)O; Orn = NCCC[C@H](N)C(=O)O; Dab = NCC[C@H](N)C(=O)O
MEASURED PARAMETER: log10(Ki) (log10 of the value in nM)

COMPOUND | log10(Ki)
CCCC[C@H](NC(C)=O)C(=O)N[C@H]1CCC(=O)NCC[C@@H](C(=O)N[C@@H](Cc2c[nH]c3ccccc23)C(N)=O)NC(=O)[C@H](C)NC(=O)[C@@H](Cc2ccccc2)NC(=O)[C@H](Cc2c[nH]cn2)NC1=O [Example 9.35] (Ac-[Nle]EH[dF]A[Dab]W-NH2; lactam 2-6) | -0.10
CCCC[C@H](NC(C)=O)C(=O)N[C@H]1CCC(=O)NCC[C@@H](C(N)=O)NC(=O)[C@H](C)NC(=O)[C@@H](Cc2ccccc2)NC(=O)[C@H](Cc2c[nH]cn2)NC1=O [Example 9.33, Ac-Nle-cyclo(Glu-His-D-Phe-Ala-Dab)-NH2] (Ac-[Nle]EH[dF]A[Dab]-NH2; lactam 2-6) | 2.81
CCCC[C@H](NC(C)=O)C(=O)N[C@H]1CCC(=O)NCC[C@@H](C(=O)N[C@@H](CCCCN)C(N)=O)NC(=O)[C@H](CCCNC(=N)N)NC(=O)[C@@H](Cc2ccccc2)NC(=O)[C@H](Cc2c[nH]cn2)NC1=O [Example 9.39] (Ac-[Nle]EH[dF]R[Dab]K-NH2; lactam 2-6) | 0.30
CCCC[C@H](NC(C)=O)C(=O)N[C@H]1CCC(=O)NCC[C@@H](C(N)=O)NC(=O)[C@H](CCCNC(=N)N)NC(=O)[C@@H](Cc2cccc(Cl)c2)NC(=O)[C@H](CCCN)NC1=O [Example 9.58] (Ac-[Nle]E[Orn][dPhe(3-Cl)]R[Dab]-NH2; lactam 2-6) | 1.54
CCCC[C@H](NC(C)=O)C(=O)N[C@H]1CCC(=O)NCC[C@@H](C(N)=O)NC(=O)[C@H](CCCNC(=N)N)NC(=O)[C@@H](Cc2ccccc2)NC(=O)[C@H](Cc2c[nH]cn2)NC1=O [Example 9.32, Ac-Nle-cyclo(Glu-His-D-Phe-Arg-Dab)-NH2] (Ac-[Nle]EH[dF]R[Dab]-NH2; lactam 2-6) | 0.85

###

Consider the following compounds and their measured pEC50 readings.
TARGET UNDER TEST: hMCR-1 (Homo sapiens (Human), UniProt Q01726)
ASSAY REMARKS: Assay for agonist activity: intracellular cAMP accumulation in HBL human melanoma cells
TEST PARAMETERS: HBL cells expressing hMCR-1, averaged, read-out: MC-1 EC50 (average; cAMP HBL)
pEC50: −log10 of the molar value. Bridge positions count the residues as written; N and C are the ends. Square brackets hold non-standard residues; d marks the D form. Peptide text beside a SMILES is read from it. dPhe(3,4-F2) = N[C@H](Cc1ccc(F)c(F)c1)C(=O)O; dPhe(2-Cl) = N[C@H](Cc1ccccc1Cl)C(=O)O; dPhe(4-F) = N[C@H](Cc1ccc(F)cc1)C(=O)O; dPhe(2-F) = N[C@H](Cc1ccccc1F)C(=O)O; Nle = CCCC[C@H](N)C(=O)O; Orn = NCCC[C@H](N)C(=O)O; Dab = NCC[C@H](N)C(=O)O
MEASURED PARAMETER: pEC50

COMPOUND | MEASURED PARAMETER | MEAS VALUE
CCCC[C@H](NC(C)=O)C(=O)N[C@H]1CCC(=O)NCC[C@@H](C(N)=O)NC(=O)[C@H](CCCNC(=N)N)NC(=O)[C@@H](Cc2ccccc2F)NC(=O)[C@H](CCCN)NC1=O [Example 9.60] (Ac-[Nle]E[Orn][dPhe(2-F)]R[Dab]-NH2; lactam 2-6) | pEC50 | 9.10
CCCC[C@H](NC(C)=O)C(=O)N[C@H]1CCC(=O)NCC[C@@H](C(N)=O)NC(=O)[C@H](CCCNC(=N)N)NC(=O)[C@@H](Cc2ccccc2Cl)NC(=O)[C@H](CCCN)NC1=O [Example 9.57] (Ac-[Nle]E[Orn][dPhe(2-Cl)]R[Dab]-NH2; lactam 2-6) | pEC50 | 9.00
CCCC[C@H](NC(C)=O)C(=O)N[C@H]1CCC(=O)NCC[C@@H](C(N)=O)NC(=O)[C@H](CCCNC(=N)N)NC(=O)[C@@H](Cc2ccc(F)cc2)NC(=O)[C@H](CCCN)NC1=O [Example 9.61] (Ac-[Nle]E[Orn][dPhe(4-F)]R[Dab]-NH2; lactam 2-6) | pEC50 | 9.00
CCCC[C@H](NC(C)=O)C(=O)N[C@H]1CCC(=O)NCC[C@@H](C(N)=O)NC(=O)[C@H](CCCNC(=N)N)NC(=O)[C@@H](Cc2ccc(F)c(F)c2)NC(=O)[C@H](CCCN)NC1=O [Example 9.62] (Ac-[Nle]E[Orn][dPhe(3,4-F2)]R[Dab]-NH2; lactam 2-6) | pEC50 | 9.00
